- TESTED_SYSTEM: Jak2 (UniProt O60674)
- Sequence (O60674 whole entry, looked up): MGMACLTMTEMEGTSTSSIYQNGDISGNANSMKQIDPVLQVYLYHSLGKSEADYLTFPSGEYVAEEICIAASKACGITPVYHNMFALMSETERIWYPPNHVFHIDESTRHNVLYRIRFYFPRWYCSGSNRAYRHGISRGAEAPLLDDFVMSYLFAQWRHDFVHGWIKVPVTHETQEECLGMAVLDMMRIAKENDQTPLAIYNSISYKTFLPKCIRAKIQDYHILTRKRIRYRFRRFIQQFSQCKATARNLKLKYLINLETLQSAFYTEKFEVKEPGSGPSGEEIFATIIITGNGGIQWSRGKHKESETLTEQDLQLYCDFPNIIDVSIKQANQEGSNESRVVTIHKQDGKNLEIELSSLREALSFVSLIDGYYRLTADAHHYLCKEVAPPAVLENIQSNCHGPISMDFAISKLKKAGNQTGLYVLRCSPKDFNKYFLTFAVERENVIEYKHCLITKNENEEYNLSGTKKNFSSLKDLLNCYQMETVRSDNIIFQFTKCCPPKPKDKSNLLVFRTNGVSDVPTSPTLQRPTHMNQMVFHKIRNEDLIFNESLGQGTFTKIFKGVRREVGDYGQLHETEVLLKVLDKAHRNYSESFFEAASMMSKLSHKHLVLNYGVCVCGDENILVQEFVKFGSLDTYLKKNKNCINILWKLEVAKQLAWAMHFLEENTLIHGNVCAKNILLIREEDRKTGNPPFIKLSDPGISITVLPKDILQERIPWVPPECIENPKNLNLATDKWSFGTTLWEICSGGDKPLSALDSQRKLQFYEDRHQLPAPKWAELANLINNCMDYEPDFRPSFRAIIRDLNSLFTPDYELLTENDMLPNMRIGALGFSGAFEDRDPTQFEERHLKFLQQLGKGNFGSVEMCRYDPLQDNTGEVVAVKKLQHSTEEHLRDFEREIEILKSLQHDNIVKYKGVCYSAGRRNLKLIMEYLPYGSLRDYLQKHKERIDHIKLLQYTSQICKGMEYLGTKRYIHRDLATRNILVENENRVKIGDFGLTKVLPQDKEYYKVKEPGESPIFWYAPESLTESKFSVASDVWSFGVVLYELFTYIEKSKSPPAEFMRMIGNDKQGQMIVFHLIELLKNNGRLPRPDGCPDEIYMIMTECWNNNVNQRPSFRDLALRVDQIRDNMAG
- METHOD_SUMMARY: phosphorylation enrichment, bacterial display (enrichment ratio); higher = better substrate or ligand; peptides without Tyr show the background;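 further: 11-residue human phosphosite peptides and single-mutation variants displayed on the E. coli surface, counted by deep sequencing, each peptide's frequency after selection divided by its frequency in the unselected input library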;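 further: frequency after pTyr selection over input frequency; kinase dosed for 20-30% of maximal phosphorylation in three min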
Quick list: phosphorylation enrichment per entry.
QUANTITY_MEASURED: phosphorylation enrichment

>>> print(df.to_string())
                   construct_sequence  numeric_result
0  CDFKKYGKGLR [ZNF445_Y433_Y428C_YF]           0.718
1       VVAHHYSFAPD [TNS3_Y601_Q600H]           0.707
2   FETVKYINNER [ABCB7_Y345_F346I_YF]           0.712
3    CTTIHYNFTCN [TP53_Y234_M237T_YF]           0.704

====

# phosphorylation enrichment values compiled below
- TESTED_SYSTEM: EPHB2 (UniProt P29323)
- Sequence (P29323 whole entry, looked up): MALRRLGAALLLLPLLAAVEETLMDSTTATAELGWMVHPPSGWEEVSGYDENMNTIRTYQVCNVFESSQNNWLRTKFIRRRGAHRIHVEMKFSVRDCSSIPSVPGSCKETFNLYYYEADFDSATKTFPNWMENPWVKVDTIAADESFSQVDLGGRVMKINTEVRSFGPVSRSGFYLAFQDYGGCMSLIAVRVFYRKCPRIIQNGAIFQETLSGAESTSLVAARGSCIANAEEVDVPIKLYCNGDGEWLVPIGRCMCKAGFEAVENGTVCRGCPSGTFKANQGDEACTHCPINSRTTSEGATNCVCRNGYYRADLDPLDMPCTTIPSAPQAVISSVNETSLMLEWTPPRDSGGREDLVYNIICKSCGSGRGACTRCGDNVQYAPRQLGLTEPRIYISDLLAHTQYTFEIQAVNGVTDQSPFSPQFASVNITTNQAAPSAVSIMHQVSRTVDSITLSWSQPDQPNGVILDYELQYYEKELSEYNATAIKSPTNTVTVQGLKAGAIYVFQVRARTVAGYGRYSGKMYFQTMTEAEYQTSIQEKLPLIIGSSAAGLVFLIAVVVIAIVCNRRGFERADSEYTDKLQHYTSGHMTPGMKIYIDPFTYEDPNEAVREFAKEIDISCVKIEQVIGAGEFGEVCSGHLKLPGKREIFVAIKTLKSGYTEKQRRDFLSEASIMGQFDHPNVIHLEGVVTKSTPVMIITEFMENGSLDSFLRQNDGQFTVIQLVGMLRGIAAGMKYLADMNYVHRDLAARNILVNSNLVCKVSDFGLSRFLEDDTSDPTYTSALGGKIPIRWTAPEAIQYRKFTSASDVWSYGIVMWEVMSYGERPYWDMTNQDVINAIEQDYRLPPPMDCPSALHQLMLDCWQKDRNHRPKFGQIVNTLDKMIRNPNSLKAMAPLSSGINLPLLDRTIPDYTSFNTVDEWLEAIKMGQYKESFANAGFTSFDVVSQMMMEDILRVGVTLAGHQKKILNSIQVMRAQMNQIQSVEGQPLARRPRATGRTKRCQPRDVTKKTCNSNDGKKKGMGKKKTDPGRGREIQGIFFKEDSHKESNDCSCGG
- METHOD_SUMMARY: phosphorylation enrichment, bacterial display (enrichment ratio); higher = better substrate or ligand; peptides without Tyr show the background
QUANTITY_MEASURED: phosphorylation enrichment

In [3]: df
Out[3]:
                   construct_sequence           tested_system  numeric_result
 0       RRIHRYRGHLW [VHL_Y112_S111R]  EPHB2 (UniProt P29323)           0.445
 1   LLREWYVQDPF [SIX3_Y225_L226V_YF]  EPHB2 (UniProt P29323)           0.621
 2            DPLLTYRFPPK [LMNA_Y481]  EPHB2 (UniProt P29323)           0.349
 3         VDTPMYATMQR [TPO_Y55_A53P]  EPHB2 (UniProt P29323)           0.838
 4  SIKNKYVTALF [KCNH2_Y611_D609N_YF]  EPHB2 (UniProt P29323)           0.459
 5            ANFAKYGNPNE [BCHE_Y505]  EPHB2 (UniProt P29323)           0.331
 6          LVRAFYCERRR [CARD11_Y970]  EPHB2 (UniProt P29323)            1.71
 7    LERYIYNREEY [HLA-DPB1_Y59_F64Y]  EPHB2 (UniProt P29323)           0.982
 8      TTEHIYGDKFF [UBA7_Y524_N527K]  EPHB2 (UniProt P29323)           0.477
 9              NYDLDYDSVQP [MYC_Y16]  EPHB2 (UniProt P29323)            1.96
10   VSLEAYCKHKF [RXRA_Y403_A398V_YF]  EPHB2 (UniProt P29323)           0.509
11    EPFELYCEMGS [CBL_Y371_Q367P_YF]  EPHB2 (UniProt P29323)            2.31
12     ILGRFYETSSI [PAX2_Y73_G76S_YF]  EPHB2 (UniProt P29323)            0.47
13  DLDTEYGSGYP [RNASEH2A_Y206_D205E]  EPHB2 (UniProt P29323)           0.542
14   TRYDEYLEVTK [MAP1A_Y2217_H2214Y]  EPHB2 (UniProt P29323)           0.884
15            PSNTDYPGPHS [TP63_Y171]  EPHB2 (UniProt P29323)           0.661
16         VIKDKYPKARF [APTX_Y209_YF]  EPHB2 (UniProt P29323)           0.297
17       PELINYHQHNF [BTK_Y361_S366F]  EPHB2 (UniProt P29323)           0.826
18       KQLGEYKFQNA [ALB_Y425_E420K]  EPHB2 (UniProt P29323)           0.386
19           GRFCGYKSKHG [EPHA3_Y570]  EPHB2 (UniProt P29323)           0.368
20         FSCLPYGRLAY [SLC52A2_Y305]  EPHB2 (UniProt P29323)           0.513
21          DNEALYDICFR [TUBB2B_Y208]  EPHB2 (UniProt P29323)            4.88

====

Each item that follows carries a reported phosphorylation enrichment.
- TESTED_SYSTEM: FGFR1 (UniProt P11362)
- Sequence (P11362 whole entry, looked up): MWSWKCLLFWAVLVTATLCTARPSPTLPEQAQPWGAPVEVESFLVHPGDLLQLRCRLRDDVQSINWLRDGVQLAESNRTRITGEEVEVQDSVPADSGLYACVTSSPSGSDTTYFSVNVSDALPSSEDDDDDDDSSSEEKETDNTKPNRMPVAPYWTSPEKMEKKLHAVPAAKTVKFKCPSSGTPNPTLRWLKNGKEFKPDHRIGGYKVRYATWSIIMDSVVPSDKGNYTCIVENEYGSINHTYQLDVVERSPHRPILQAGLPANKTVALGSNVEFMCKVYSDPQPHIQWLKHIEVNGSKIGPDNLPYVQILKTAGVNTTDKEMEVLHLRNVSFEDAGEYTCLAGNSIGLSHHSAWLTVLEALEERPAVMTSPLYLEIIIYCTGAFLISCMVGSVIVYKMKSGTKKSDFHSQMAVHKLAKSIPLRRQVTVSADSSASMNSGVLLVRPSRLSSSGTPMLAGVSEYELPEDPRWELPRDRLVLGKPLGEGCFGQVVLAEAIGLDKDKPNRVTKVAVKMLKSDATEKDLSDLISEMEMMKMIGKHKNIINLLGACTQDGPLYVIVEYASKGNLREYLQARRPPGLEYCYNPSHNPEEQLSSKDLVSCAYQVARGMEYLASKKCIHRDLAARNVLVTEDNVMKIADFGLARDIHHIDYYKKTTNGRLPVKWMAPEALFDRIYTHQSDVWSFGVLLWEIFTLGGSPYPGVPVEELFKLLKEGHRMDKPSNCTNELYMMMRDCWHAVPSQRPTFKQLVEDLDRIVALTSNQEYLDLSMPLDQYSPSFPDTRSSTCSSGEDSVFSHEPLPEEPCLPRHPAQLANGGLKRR
- METHOD_SUMMARY: phosphorylation enrichment, bacterial display (enrichment ratio); higher = better substrate or ligand; peptides without Tyr show the background
QUANTITY_MEASURED: phosphorylation enrichment

                     construct_sequence  result
 0         NDQANYLLNTD [ADA_Y290_S291L]   0.432
 1      LGQRIYQYIRS [DYRK1B_Y271_Q275R]    1.54
 2            TGEKLYQRKEF [ZNF283_Y627]   0.539
 3  QFNPEYVQQAS [LRRC7_Y1058_H1054Y_YF]   0.741
 4          PIDLFYLMDLS [ITGB2_Y131_YF]   0.633
 5                ISGGGYRARPA [FGB_Y71]   0.345
 6        NPQKSYFICLF [WAS_Y83_R86C_YF]   0.632
 7               NVTGHYISPFH [PPA2_Y59]   0.459
 8             DVLPEYKLQAP [KCNH2_Y388]    0.48
 9      MTFQNYRQALF [FAM20C_Y279_G280R]   0.444
10       KAEQLYIGVTV [EFHC2_Y509_E507Q]    3.47
11        GVLKEYVVKVL [CPS1_Y529_G530V]   0.383
12              GITVAYTIPKK [UBA5_Y372]   0.337
13       RLLRGHDQSAY [HLA-C_Y137_Y137H]   0.417

====

- TESTED_SYSTEM: Jak2 (UniProt O60674)
- METHOD_SUMMARY: phosphorylation enrichment, bacterial display (enrichment ratio); higher = better substrate or ligand; peptides without Tyr show the background
Answer not satisfied if phosphorylation enrichment is under 0.8, and satisfied if it is 0.8 or more.

>>> print(df.to_string())
                    construct_sequence          label
 0            YVSSFYHAFSG [ACTN4_Y265]      satisfied
 1             FEGAIYRKDVG [GART_Y417]  not satisfied
 2       RGKDNYETSQL [SPP1_Y225_S224N]  not satisfied
 3        FLAVGYHQPHI [IDS_Y225_K227Q]  not satisfied
 4       LRAGVYREKDQ [DNM2_Y626_P627R]  not satisfied
 5    KDKLPYLFDDP [GPX2_Y125_P126L_YF]      satisfied
 6              LNEVGYDDIGG [VCP_Y203]      satisfied
 7     INSLKYAYNVS [EIF2B5_Y583_I587V]  not satisfied
 8     KRAAIYNPVIF [RHO_Y301_S297R_YF]  not satisfied
 9        ALAHKCHGGGG [HBB_Y146_Y146C]      satisfied
10              ATRKAYGQALA [TKT_Y321]  not satisfied
11   FGFPGYQCKHF [TIMP3_Y177_S179C_YF]      satisfied
12              RRERPYGGGGG [FUS_Y526]  not satisfied
13    RKLASYQSCLL [DHX37_Y1080_R1081Q]      satisfied
14            PYSEPYADYGG [APBA1_Y187]      satisfied
15  MFNPCYGLFEF [NEDD4L_Y680_Y679C_YF]      satisfied
16      KAIMIYVSSFY [ACTN4_Y260_T259I]      satisfied
17        TAALWYIYLHT [ENG_Y612_S615L]      satisfied
18         RGRSTYFWPRP [GAGE12J_Y9_YF]      satisfied
19             PSNTDYPGPHS [TP63_Y171]  not satisfied
20            YLGRDYLETLM [DUS3L_Y610]      satisfied
21        KWHREYNSKFV [RICTOR_Y835_YF]  not satisfied
22       KIKLNYTLPQD [NRAP_Y523_N519I]  not satisfied
23           DHFNQYEQQKM [CHD7_Y75_YF]  not satisfied
24             RSLLQYGGSAN [ANK1_Y624]  not satisfied
25        VERIGYDFIPT [CBS_Y308_G305R]  not satisfied
26           IRKAEYPFSSE [ATP2C1_Y452]  not satisfied
27       NDLMEYPKQHG [ASS1_Y163_A164P]  not satisfied
28             YYSSEYHYVGG [CTSC_Y345]      satisfied
29       NLRQQYNSPQE [UMPS_Y432_G429R]  not satisfied
30         AGQKDYDRLRP [RAC3_Y64_E62K]  not satisfied
31       WQQQSYLDLGI [CTNNB1_Y30_S33L]      satisfied
32   DLDTEYGSGYP [RNASEH2A_Y206_D205E]      satisfied
33       DGKYSYLKVGH [GRM3_Y480_G475D]  not satisfied
34       GESKDYALHAG [SVIL_Y185_V189A]  not satisfied
35            HIKHNYECLVY [XRCC5_Y416]      satisfied
36          PADCRYFAFPQ [GAMT_Y222_YF]      satisfied
37            AVRVFYRKCPR [EPHB2_Y194]  not satisfied
38          NPQKSYFIHLY [WAS_Y83_R86H]      satisfied
39            FEPWVYSFSYE [PRKDC_Y647]      satisfied
40        TFMKKYPKVFL [CNBD1_Y70_Q69K]  not satisfied
41       ADARMYGVLLW [PLP1_Y207_P211L]      satisfied
42         MKGDFYRFLAE [YWHAG_Y131_YF]      satisfied
43          GHGEEYPAAGA [NOTCH3_Y2221]  not satisfied
44       NPQKSYFICLF [WAS_Y83_R86C_YF]      satisfied
45      GGYTWYCDGKK [PROS1_Y266_C265W]      satisfied
46      QADVTYVNTQL [MERTK_Y872_I871T]  not satisfied
47          QRPGPYDRPGA [HNRNPH2_Y210]  not satisfied
48             AGTILYHAHLD [ASS1_Y291]  not satisfied
49   LQLLGHRPVFS [CHST6_Y358_Y358H_YF]      satisfied
50           CEHRGYLFLAI [TEK_Y897_YF]      satisfied

Values from the supplement of paper PMC10065799
